# tested-target: TbrCatL (Trypanosoma brucei rhodesiense, UniProt Q95PM0)
# Construct: Conor Caffrey (University of California San Diego)
# Sequence (Q95PM0 entry or part of it): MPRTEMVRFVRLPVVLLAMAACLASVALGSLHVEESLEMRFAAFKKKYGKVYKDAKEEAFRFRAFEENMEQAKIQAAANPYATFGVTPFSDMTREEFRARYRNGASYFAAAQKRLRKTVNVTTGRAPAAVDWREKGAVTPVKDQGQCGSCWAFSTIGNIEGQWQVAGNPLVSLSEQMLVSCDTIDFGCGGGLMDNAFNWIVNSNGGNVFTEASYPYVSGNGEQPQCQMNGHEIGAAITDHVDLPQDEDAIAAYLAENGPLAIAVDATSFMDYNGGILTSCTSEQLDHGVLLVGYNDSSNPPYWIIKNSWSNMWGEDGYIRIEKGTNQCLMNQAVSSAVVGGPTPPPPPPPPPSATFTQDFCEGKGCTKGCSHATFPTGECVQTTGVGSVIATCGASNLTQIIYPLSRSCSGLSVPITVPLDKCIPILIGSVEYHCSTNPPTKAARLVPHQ
# assay-explanation: TbrCatL enzymatic inhibition assay (cleavage of fluorogenic substrate Z-FR-AMC);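 on TbrCatL 0’ Inhibition: at 5 µM compound concentration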
# Format: biochemical
# condition-description: read-out: TbrCatL 0’ Inhibition
I would appreciate it if you labelled entries MET when inhibition at 5 µM is 10% or higher, otherwise NOT MET.

Reference set, count: 6
CN1CCN(CCCOc2ncc(Nc3ncc(-c4ccc(C(F)(F)F)c(F)c4)nc3C(N)=O)cn2)CC1 = MET
CN1CCN(S(=O)(=O)c2ccc(-c3ccc4c(Nc5ccc6nn[nH]c6c5)ccnc4c3)cc2)CC1 = MET
COc1cc(C2=NCCN2)cc2cc(-c3ccc(C4=NCCN4)cc3)oc12 = NOT MET
N#Cc1ccc(-c2cnc(N)c(-c3ccc(C(N)=O)cc3)n2)cc1 = NOT MET
N=C(N)Nc1ccc(-c2ccc(-c3ccc(NC(=N)N)c(Cl)c3)o2)cc1Cl = MET
CCn1cnc2c(Nc3cc(F)cc(F)c3)nc(C#N)nc21 [MMV676881, reference compound] = MET

inhibition at 5 µM >= 10% for O=C(NCCN1CCCC1)c1cc(NCCCCN2CCC(F)(F)CC2)nc2ccc(Cl)cc12 ?
MET

inhibition at 5 µM >= 10% for O=C(NCCN1CCCC1)c1cc(NCCN2CCOCC2)nc2ccc(Cl)cc12 ?
MET

inhibition at 5 µM >= 10% for N=C(N)Nc1ccc(-c2ccc(-c3ccc(NC(=N)N)cc3Cl)o2)c(Cl)c1 ?
MET

###

# tested-target: UniProt P25779
# assay-explanation: biochemical
# condition-description: IC50 (µM ± SEM %) Cruzain 0′, no pre-incubation
This listing pairs compounds with measured IC50.
Just the number please, in µM, no unit attached.

CN1CCN(CCCOc2ncc(Nc3ncc(-c4ccc(C(F)(F)F)c(F)c4)nc3C(N)=O)cn2)CC1 = 2.2
COc1ccc(C2=NN(C3CCCCCC3)C(=O)C2(C)C)cc1OCCCCOc1ccc(-c2nn[nH]n2)cc1 = 10
Cn1ccnc1CNCCS(=O)(=O)c1cccc(Nc2ccc(-c3cccc(F)c3)cn2)c1 = 9
COc1cc(C2=NCCN2)cc2cc(-c3ccc(C4=NCCN4)cc3)oc12 = 4.2
N=C(N)Nc1ccc(-c2ccc(-c3ccc(NC(=N)N)cc3Cl)o2)c(Cl)c1 = 0.46

Supply measured IC50 of CN1CCN(S(=O)(=O)c2ccc(-c3ccc4c(Nc5ccc6nn[nH]c6c5)ccnc4c3)cc2)CC1 in your reply.
14

###

# tested-target: UniProtKB P25779
# assay-explanation: biochemical
# condition-description: 10’ (pre-incubation time); sheet "Screening results"
endpoint-name: Cruzain 10’ Inhibition (%)
Just the number please, in %, no unit attached.

For orientation, consider the following solved cases.
COc1ccc(-c2nn(C(C)C)c3ncnc(N)c23)cc1OC = -1.8
Cc1cc(C)nc(-n2nc(C)cc2Nc2ccccc2)n1 = -3
CCOc1ccccc1NC(C)C(=O)Nc1cc(C(F)(F)F)ccc1N1CCOCC1 (centres unmarked) = 4

Supply measured Cruzain 10’ Inhibition of NC(CC(=O)c1ccc(Cl)cc1Cl)C(Cl)(Cl)Cl (centres unmarked) in your reply.
0.4

Supply measured Cruzain 10’ Inhibition of c1cc(C2=NCCN2)cc(-c2cc(-c3ccc(C4=NCCN4)cc3)no2)c1 in your reply.
7.4

###

This listing pairs compounds with measured Cruzain 0’ Inhibition.
# tested-target: cruzain (Trypanosoma cruzi);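 on Cruzain 0’ Inhibition: at 5 µM compound concentration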
# Sequence (P25779 123-337 limits assumed): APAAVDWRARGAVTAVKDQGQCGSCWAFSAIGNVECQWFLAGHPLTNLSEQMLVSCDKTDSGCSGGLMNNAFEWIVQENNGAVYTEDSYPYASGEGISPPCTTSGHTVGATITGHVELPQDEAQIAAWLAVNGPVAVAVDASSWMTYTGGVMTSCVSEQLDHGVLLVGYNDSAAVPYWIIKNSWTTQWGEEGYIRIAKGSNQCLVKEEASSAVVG
# assay-explanation: biochemical
# condition-description: 0’ (pre-incubation time); sheet "Screening results"
Just the number please, in %, no unit attached.

For orientation, consider the following solved cases.
O=C(CN1CCOCC1)Nc1ccc2ncnc(Nc3ccc(OCc4cccc(F)c4)c(Cl)c3)c2c1 = 5.7
COc1cc(C(F)(F)F)nc2ccc(C)c(N)c12 = 1.1
N#Cc1nc(-c2ccccc2F)oc1NCCc1ccccc1 = 7
COc1ccc2nc(C)cc(OCC(=O)NCc3ccccc3)c2c1 = 4.5
Cc1cc(C)c2cc(C(=O)NC3CCCCCCC3)[nH]c2c1 = 4.7

Here is the next item to consider.
Supply measured Cruzain 0’ Inhibition of Clc1ccc(-n2cc(COc3ccnc4ccccc34)nn2)cc1 in your reply.
5

###

# tested-target: TbrCatL (Trypanosoma brucei rhodesiense)
# Construct: Conor Caffrey (University of California San Diego)
# assay-explanation: TbrCatL enzymatic inhibition assay (cleavage of fluorogenic substrate Z-FR-AMC)
# Type: biochemical
# condition-description: read-out: TbrCatL 10’ Inhibition
This listing pairs compounds with measured inhibition at 5 µM.
Just the number please, in %, no unit attached.

For orientation, consider the following solved cases.
N#Cc1ccc(-c2cnc(N)c(-c3ccc(C(N)=O)cc3)n2)cc1 = 46
CCn1cnc2c(Nc3cc(F)cc(F)c3)nc(C#N)nc21 [MMV676881, reference compound] = 103
O=C(NCCN1CCCC1)c1cc(NCCN2CCOCC2)nc2ccc(Cl)cc12 = 42
O=C(NCCN1CCCC1)c1cc(NCCCCN2CCC(F)(F)CC2)nc2ccc(Cl)cc12 = 73

Here is the next item to consider.
Supply measured inhibition at 5 µM of N=C(N)Nc1ccc(-c2ccc(-c3ccc(NC(=N)N)c(Cl)c3)o2)cc1Cl in your reply.
43

###

This listing pairs compounds with measured Cruzain 0’ Inhibition.
# tested-target: UniProtKB P25779
# assay-explanation: biochemical
# condition-description: 0’ (pre-incubation time); sheet "Screening results"
Just the number please, in %, no unit attached.

FC(F)(F)c1cnc(Sc2nnc(-c3ccncc3)o2)c(Cl)c1 [MMV011765] = 0.7
Cc1cc(NC(=O)c2ccc(S(=O)(=O)N(Cc3ccccc3)C(C)C)cc2)no1 [MMV007133] = -3
CCOc1ccccc1C(=O)Nc1cccc(-c2nc3ncccn3c2C)c1 [MMV019790] = 3.2
CC(C)(C)c1ccc(N[C@@H]2CCCC[C@H]2NC(=O)c2ccco2)cc1 [MMV675969] = -8
O=C(NC1CCN(c2ccnc3ccccc23)C1)c1cccc(C(F)(F)F)c1 (stereo not shown) [MMV023388] = 8
CNC(=O)C1Cc2c([nH]c3cc(Cl)ccc23)C2(CCN(CCc3ccccc3)CC2)N1 (stereo not shown) [MMV031011] = -7.5
O=C([C@@H](c1ccc(Cl)cc1)c1cccnc1)N1CCN(c2ccc(C(F)(F)F)cc2)CC1 [MMV689244] = 2.7
c1ccc2c(c1)CN(CC1CC1)CC1(CCN(Cc3c[nH]c4cnccc34)CC1)O2 [MMV023183] = 3.5
Nc1ncnc2n[nH]c(Cc3cccc4ccccc34)c12 [MMV688469] = -9
CC(C)(C)CN1C(=O)C(c2ccccc2)(c2ccccc2)N=C1N [MMV026550] = 0

Supply measured Cruzain 0’ Inhibition of Cn1c(=O)c2c(S(C)(=O)=O)snc2n(C)c1=O [MMV687251] in your reply.
12

Supply measured Cruzain 0’ Inhibition of OC[C@H]1O[C@@H](n2c3ccc(Cl)cc3c3c(-c4cc5ccccc5o4)ncnc32)C(O)[C@H]1O (stereo partly shown) [MMV688921] in your reply.
4.7

Supply measured Cruzain 0’ Inhibition of CC(c1cc(Cl)cc(Cl)c1)N(C)c1ncc2c(N)nc(N)nc2n1 (stereo not shown) [MMV689437] in your reply.
-3

Supply measured Cruzain 0’ Inhibition of CCc1cc(=O)n(C)c(SC(C)C(=O)Nc2ccc(F)cc2)n1 (stereo not shown) [MMV688980] in your reply.
-3.8

Supply measured Cruzain 0’ Inhibition of CCN(CC)C(=O)N1CCN(C)CC1 [MMV002816] in your reply.
2.5

###

This listing pairs molecules with measured TbrCatL 0’ Inhibition.
# tested-target: TbrCatL (Trypanosoma brucei rhodesiense, UniProt Q95PM0)
# Construct: Conor Caffrey (University of California San Diego)
# assay-explanation: TbrCatL enzymatic inhibition assay (cleavage of fluorogenic substrate Z-FR-AMC);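 on TbrCatL 0’ Inhibition: at 5 µM compound concentration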
# Assay type: biochemical
# condition-description: 0’ (pre-incubation time); sheet "Screening results"
Just the number please, in %, no unit attached.

For orientation, consider the following solved cases.
CC1=Nc2ccc(Cl)cc2C(c2ccccc2)N1CCNC(=O)CN(C)C (stereo not drawn) = -4.7
Nc1ncnc2n[nH]c(Cc3cccc4ccccc34)c12 = -8
C[C@H]1COc2c(N3CCN(C)CC3)c(F)cc3c(=O)c(C(=O)O)cn1c23 = -4.6
CN(C)CCNC(=O)N1CCCN(c2ncnc3cc(-c4ccccc4)sc23)CC1 = 1.1
CCc1ccc([C@@H]2C[C@H](C(F)(F)F)n3ncc(C(=O)NCc4ccc(OC)cc4)c3N2)cc1 = -4.3

Supply measured TbrCatL 0’ Inhibition of O=C(Nc1ccc(C(F)(F)F)c(C(F)(F)F)c1)c1cc(Cl)ccc1O in your reply.
-4

Supply measured TbrCatL 0’ Inhibition of Nc1ccc(C(=O)Nc2ccc(-c3nc4ccccc4o3)cc2)cc1 in your reply.
4.7

Supply measured TbrCatL 0’ Inhibition of CC(=O)N(CCN(C(=O)c1ccc(F)cc1)c1ccccc1)c1ccccc1 in your reply.
-5

Supply measured TbrCatL 0’ Inhibition of Clc1cccc(CO[C@H]2CCc3ccccc3[C@@H]2n2ccnn2)c1 in your reply.
-13
